Molecular target: F508delCFTR (Homo sapiens, UniProt P13569, DEL508-508)
Construct: expressed in transfected cells; host or cells: CFBE41o- human lung-derived epithelial cells (CFBE4lo-F508delCFTR-HRP), doxycycline-inducible
Sequence (P13569 with tags, fused parts or gaps DEL508-508): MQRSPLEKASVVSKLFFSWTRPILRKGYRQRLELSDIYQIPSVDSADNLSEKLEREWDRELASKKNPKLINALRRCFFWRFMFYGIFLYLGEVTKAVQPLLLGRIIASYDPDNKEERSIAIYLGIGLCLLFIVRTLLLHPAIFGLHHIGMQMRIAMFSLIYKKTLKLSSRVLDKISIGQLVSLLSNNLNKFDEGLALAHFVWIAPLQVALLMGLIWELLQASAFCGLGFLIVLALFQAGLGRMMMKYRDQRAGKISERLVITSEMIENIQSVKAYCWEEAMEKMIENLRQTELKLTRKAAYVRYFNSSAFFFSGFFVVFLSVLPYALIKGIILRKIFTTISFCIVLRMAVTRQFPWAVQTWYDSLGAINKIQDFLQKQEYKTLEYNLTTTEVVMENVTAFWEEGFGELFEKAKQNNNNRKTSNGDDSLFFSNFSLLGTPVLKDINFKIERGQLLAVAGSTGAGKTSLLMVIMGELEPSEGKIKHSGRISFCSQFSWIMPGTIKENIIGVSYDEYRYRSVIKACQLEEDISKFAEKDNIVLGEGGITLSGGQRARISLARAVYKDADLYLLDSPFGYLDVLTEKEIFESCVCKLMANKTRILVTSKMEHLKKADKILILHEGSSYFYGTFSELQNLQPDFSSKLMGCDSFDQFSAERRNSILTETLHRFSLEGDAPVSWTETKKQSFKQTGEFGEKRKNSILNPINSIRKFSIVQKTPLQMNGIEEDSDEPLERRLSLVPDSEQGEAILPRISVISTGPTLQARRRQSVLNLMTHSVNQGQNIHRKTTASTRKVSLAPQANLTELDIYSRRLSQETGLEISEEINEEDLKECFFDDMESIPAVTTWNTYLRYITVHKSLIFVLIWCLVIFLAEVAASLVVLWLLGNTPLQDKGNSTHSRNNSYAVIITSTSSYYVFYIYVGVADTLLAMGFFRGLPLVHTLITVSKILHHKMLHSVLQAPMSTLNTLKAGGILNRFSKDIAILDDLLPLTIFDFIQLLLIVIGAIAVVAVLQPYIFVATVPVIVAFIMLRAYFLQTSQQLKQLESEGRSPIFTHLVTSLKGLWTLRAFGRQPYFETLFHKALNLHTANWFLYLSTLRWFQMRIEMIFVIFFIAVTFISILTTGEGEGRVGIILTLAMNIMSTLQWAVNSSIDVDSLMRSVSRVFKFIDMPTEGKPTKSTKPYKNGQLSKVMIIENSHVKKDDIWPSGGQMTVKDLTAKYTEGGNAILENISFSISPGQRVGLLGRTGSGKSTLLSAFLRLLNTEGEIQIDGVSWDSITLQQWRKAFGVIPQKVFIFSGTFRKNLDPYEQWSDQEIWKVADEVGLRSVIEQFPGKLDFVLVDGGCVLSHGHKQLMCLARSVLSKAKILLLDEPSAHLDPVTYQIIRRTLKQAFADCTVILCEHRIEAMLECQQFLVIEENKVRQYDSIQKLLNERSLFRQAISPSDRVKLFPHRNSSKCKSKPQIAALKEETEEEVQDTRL
Assay: Cell Surface Expression-Horse Radish Peroxidase (CSE-HRP) Assay;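 for Maximum % activity (without co-corrector): percent of the 2 µM on-plate positive control corrector response above DMSO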
Type: cell-based
Conditions: test compound without co-corrector; maximum at any tested concentration, normalized to on-plate positive control; read-out: Maximum % activity (without co-corrector)
Procedure: Cell Surface Expression-Horse Radish Peroxidase (CSE-HRP) Assay The development was achieved by expressing the F508delCFTR mutation along with a horseradish peroxidase (HRP) in the fourth exofacial loop, and then measuring the HRP activity using luminescence readout from these cells, CFBE4lo-F508delCFTR-HRP, that were incubated overnight with the test corrector compounds, either without or with the co-corrector. […] The raw counts from the experiment were analyzed using Accelrys® Assay Explorer v3.3. […]
Provide the recorded Emax for the entries that follow.

molecule	target	Emax
COc1ccc(C(C)(C)C)cc1CN[C@H]1[C@H](C(C)(C)C)[C@@H](C(=O)O)N(C(=O)c2cnn(-c3ccccc3)c2C)[C@H]1c1ccccc1 [II-361]	F508delCFTR (Homo sapiens, UniProt P13569, DEL508-508)	> 200%
COc1ncc(CN[C@@H]2[C@@H](C(C)(C)C)[C@H](C(=O)O)N(C(=O)C3CCCCC3)[C@@H]2c2ccccc2)c(OC)n1 (racemic) [III-29]	F508delCFTR (Homo sapiens, UniProt P13569, DEL508-508)	< 100%

[Q] Consider the molecule shown here: COc1ccc(C(C)(C)C)cc1CN[C@H]1[C@H](C(C)(C)C)[C@@H](C(=O)O)N(C(=O)[C@@H](C)[C@H]2CCCCO2)[C@H]1c1ccccc1 (relative stereo) [II-455] What is its recorded Emax?
[A] > 200%

----------
Please go through the items and note down their pEC50.
Biological target: F508delCFTR (Homo sapiens, UniProt P13569, DEL508-508)
Construct: expressed in transfected cells; host or cells: CFBE41o- human lung-derived epithelial cells (CFBE4lo-F508delCFTR-HRP), doxycycline-inducible
Assay: Cell Surface Expression-Horse Radish Peroxidase (CSE-HRP) Assay
Type: cell-based
Details: CSE-HRP; test compound without co-corrector; read-out: EC50 (without co-corrector)
pEC50: −log10 of the molar value.

compound	pEC50
COc1ncc(C(F)(F)F)cc1CN[C@H]1[C@H](C(C)(C)C)[C@@H](C(=O)O)N(C(=O)C2CC2)[C@H]1c1ccccc1C(C)C [Example I-271]	5.00 to 6.00
CC(C)OC(=O)N1[C@H](C(=O)O)[C@@H](C(C)(C)C)[C@H](NCC(C)(C)c2ccccc2)[C@@H]1c1ccccc1 [Example I-264]	5.00 to 6.00
COc1nc2ccccc2cc1CN[C@H]1[C@H](C(C)(C)C)[C@@H](C(=O)O)N(C(=O)C2CCCCC2)[C@H]1c1ccccc1 [II-244]	5.00 to 6.00

Give me pEC50 for each of these compounds, listed below.
1. COc1cc(Cl)ccc1CN[C@@H]1[C@@H](C(C)(C)C)[C@H](C(=O)O)N(C(=O)C2CCCOC2)[C@@H]1c1ccccc1N(C)C (mixture of isomers) [II-23]
2. COc1ccc(-c2cccc(C#N)c2)cc1CN[C@H]1[C@H](C(C)(C)C)[C@@H](C(=O)O)N(C(=O)C2CCCCC2)[C@H]1c1ccccc1 [II-281]

[A]
5.00 to 6.00
5.00 to 6.00

----------
Target: F508delCFTR (Homo sapiens, UniProt P13569, DEL508-508)
Construct: expressed in transfected cells; host or cells: CFBE41o- human lung-derived epithelial cells (CFBE4lo-F508delCFTR-HRP), doxycycline-inducible
Assay: Cell Surface Expression-Horse Radish Peroxidase (CSE-HRP) Assay
Type: cell-based
Settings: test compound without co-corrector; read-out: EC50 (without co-corrector)
Assignment: determine reported EC50 for the given molecules.

# annotated cases, reported EC50 shown
> print(dat)
                                   molecule                                    target  experimental.endpoint  measured.result
1  COc1ccc(C(F)(F)F)cc1CN[C@@H]1[C@@H](C(C)(C)C)[C@H](C(=O)O)N(C(=O)C2CCCCC2)[C@@H]1c1ccccn1 (racemic)  F508delCFTR (Homo sapiens, UniProt P13569, DEL508-508)                   EC50       1 to 10 µM
2  CC(C)(C)c1ccc(O)c(CN[C@H]2[C@H](C(C)(C)C)[C@@H](C(=O)O)N(C(=O)C3CCCCC3)[C@H]2c2ccccc2)c1  F508delCFTR (Homo sapiens, UniProt P13569, DEL508-508)                   EC50          > 10 µM
3  COc1ncc(C(F)(F)F)cc1N[C@H]1[C@H](C(C)(C)C)[C@@H](C(=O)O)N(C(=O)C2CCCCC2)[C@H]1c1cccnc1N(C)C  F508delCFTR (Homo sapiens, UniProt P13569, DEL508-508)                   EC50       1 to 10 µM
4  COc1ccc(C(C)(C)C)cc1CN[C@H]1[C@H](C(C)(C)C)[C@@H](C(=O)O)N(C(=O)[C@@H](C)c2ccccc2)[C@H]1c1ccccc1  F508delCFTR (Homo sapiens, UniProt P13569, DEL508-508)                   EC50       1 to 10 µM
5  CCCCCOC(=O)N1[C@H](C(=O)O)[C@@H](C(C)(C)C)[C@H](NCc2cc(C(C)(C)C)ccc2OC)[C@@H]1c1ccccc1  F508delCFTR (Homo sapiens, UniProt P13569, DEL508-508)                   EC50           < 1 µM

In the following, a different molecule is considered.
[Q] // EC50 lookup, key: `COc1ccc(C(C)(C)C)cc1CN[C@H]1[C@H](C(C)(C)C)[C@@H](C(=O)O)N(C(=O)c2ccccc2)[C@H]1c1ccccc1`
[A] 1 to 10 µM

----------
Molecular target: F508delCFTR (Homo sapiens, UniProt P13569, DEL508-508)
Construct: expressed in transfected cells; host or cells: CFBE41o- human lung-derived epithelial cells (CFBE4lo-F508delCFTR-HRP), doxycycline-inducible
Assay: Cell Surface Expression-Horse Radish Peroxidase (CSE-HRP) Assay
Format: cell-based
Settings: CSE-HRP; test compound without co-corrector; read-out: EC50 (without co-corrector)
pEC50: −log10 of the molar value.
Give measured pEC50 for each item. Keep answers brief.

> print(dat)
                            compound.smiles  experimental.endpoint  measured.result
1  COc1ccc(C(C)(C)C)cc1CN[C@H]1[C@H](C(C)(C)C)[C@@H](C(=O)O)N(C(=O)Cc2cc(F)cc(F)c2)[C@H]1c1ccccc1                  pEC50     5.00 to 6.00
2  COc1ccc(-c2ccccc2)cc1CN[C@H]1[C@H](C(C)(C)C)[C@@H](C(=O)O)N(C(=O)OC(C)C)[C@H]1c1ccccc1                  pEC50     5.00 to 6.00

We next turn to a different molecule, shown below.
[Q] Query: pEC50; subject: `COc1ccc(OC(F)(F)F)cc1CN[C@H]1[C@H](C(C)(C)C)[C@@H](C(=O)O)N(C(=O)C2CCCCC2)[C@H]1c1ccccc1`
[A] 5.00 to 6.00

----------
Target: F508delCFTR (Homo sapiens, UniProt P13569, DEL508-508)
Construct: expressed in transfected cells; host or cells: CFBE41o- human lung-derived epithelial cells (CFBE4lo-F508delCFTR-HRP), doxycycline-inducible
Assay: Cell Surface Expression-Horse Radish Peroxidase (CSE-HRP) Assay;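 for Maximum % activity (with co-corrector): co-corrector and positive control are both the same reference corrector at 2 µM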
Type: cell-based
Conditions: with co-corrector (2 μM); maximum at any tested concentration, normalized to on-plate positive control
experimental.endpoint: Maximum % activity (with co-corrector)

Example results:
compound	Maximum % activity (with co-corrector)
COc1cc2c(cc1CN[C@H]1[C@H](C(C)(C)C)[C@@H](C(=O)O)N(C(=O)C3CCCCC3)[C@H]1c1ccccc1)C(C)(C)CCC2(C)C [III-119]	+++ (≥350)
COc1ccc(C(F)(F)F)cc1CN[C@H]1[C@H](C(C)(C)C)[C@@H](C(=O)O)N(C(=O)[C@H]2CCCC(F)(F)C2)[C@H]1c1ccccc1 [III-185]	++ (≥150 and <350)
COc1ncc(C(F)(F)F)cc1CN[C@H]1[C@H](C(C)(C)C)[C@@H](C(=O)O)N(C(=O)OC(C)C)[C@H]1c1cccnc1OC(C)C [Example 79]	+++ (≥350)
COc1ncc(C2CCC2)cc1CN[C@H]1[C@H](C(C)(C)C)[C@@H](C(=O)O)N(C(=O)[C@@H]2CCCO2)[C@H]1c1ccccc1Br [Example 106]	+++ (≥350)
COc1ccc(C(C)(C)C)cc1CN[C@H]1[C@H](C(C)(C)C)[C@@H](C(=O)O)N(C(=O)[C@H](C)c2ccccc2)[C@H]1c1cccnc1OC [Example I-239]	+++ (≥350)

Required: Maximum % activity (with co-corrector), one value per compound below.
1. CCC(CC)Cc1ccc(OC)c(CN[C@H]2[C@H](C(C)(C)C)[C@@H](C(=O)O)N(C(=O)C3CCCCC3)[C@H]2c2ccccc2)c1 [III-170]
2. CC(C)(C)[C@H]1[C@H](NCc2ccc(C(F)(F)F)cc2F)[C@H](c2ccccc2)N(C(=O)C2CCCCC2)[C@@H]1C(=O)O [III-136]
3. COc1ccc(C(C)(C)C)cc1CN[C@H]1[C@H](C(C)(C)C)[C@@H](C(=O)O)N(C(=O)[C@H]2CCCCO2)[C@H]1c1cccnc1N(C)C [Example 19]
4. COc1ccc(C(C)(C)C)cc1CN[C@H]1[C@H](C(C)(C)C)[C@@H](C(=O)O)N(C(=O)C2CCCCC2)[C@H]1c1cccnc1OC [Example 17]
5. COc1ncc(C2CCCC2)cc1CN[C@H]1[C@H](C(C)(C)OC)[C@@H](C(=O)O)N(C(=O)C2CCCCC2)[C@H]1c1ccccc1 [Example I-116]
6. COc1ccc(C(C)(C)C)cc1CN[C@H]1[C@H](C(C)(C)C)[C@@H](C(=O)O)N(C(=O)OC(C)C)[C@H]1c1cccc(Cl)c1 [Example 86]
7. COc1ncc(C(F)(F)F)cc1CN[C@H]1[C@H](C(C)(C)C)[C@@H](C(=O)O)N(C(=O)[C@@H]2CCCCO2)[C@H]1c1ccccc1C(C)C [Example 84]
8. COc1ncc(C(F)(F)F)cc1N[C@H]1[C@H](C(C)(C)C)[C@@H](C(=O)O)N(C(=O)[C@@H]2CCCCO2)[C@H]1c1cccnc1N(C)C [Example I-215]

[A]
1: +++ (≥350); 2: ++ (≥150 and <350); 3: +++ (≥350); 4: +++ (≥350); 5: +++ (≥350); 6: +++ (≥350); 7: +++ (≥350); 8: ++ (≥150 and <350)
